Target: Androgen receptor (Homo sapiens)
Sequence (P10275 whole entry): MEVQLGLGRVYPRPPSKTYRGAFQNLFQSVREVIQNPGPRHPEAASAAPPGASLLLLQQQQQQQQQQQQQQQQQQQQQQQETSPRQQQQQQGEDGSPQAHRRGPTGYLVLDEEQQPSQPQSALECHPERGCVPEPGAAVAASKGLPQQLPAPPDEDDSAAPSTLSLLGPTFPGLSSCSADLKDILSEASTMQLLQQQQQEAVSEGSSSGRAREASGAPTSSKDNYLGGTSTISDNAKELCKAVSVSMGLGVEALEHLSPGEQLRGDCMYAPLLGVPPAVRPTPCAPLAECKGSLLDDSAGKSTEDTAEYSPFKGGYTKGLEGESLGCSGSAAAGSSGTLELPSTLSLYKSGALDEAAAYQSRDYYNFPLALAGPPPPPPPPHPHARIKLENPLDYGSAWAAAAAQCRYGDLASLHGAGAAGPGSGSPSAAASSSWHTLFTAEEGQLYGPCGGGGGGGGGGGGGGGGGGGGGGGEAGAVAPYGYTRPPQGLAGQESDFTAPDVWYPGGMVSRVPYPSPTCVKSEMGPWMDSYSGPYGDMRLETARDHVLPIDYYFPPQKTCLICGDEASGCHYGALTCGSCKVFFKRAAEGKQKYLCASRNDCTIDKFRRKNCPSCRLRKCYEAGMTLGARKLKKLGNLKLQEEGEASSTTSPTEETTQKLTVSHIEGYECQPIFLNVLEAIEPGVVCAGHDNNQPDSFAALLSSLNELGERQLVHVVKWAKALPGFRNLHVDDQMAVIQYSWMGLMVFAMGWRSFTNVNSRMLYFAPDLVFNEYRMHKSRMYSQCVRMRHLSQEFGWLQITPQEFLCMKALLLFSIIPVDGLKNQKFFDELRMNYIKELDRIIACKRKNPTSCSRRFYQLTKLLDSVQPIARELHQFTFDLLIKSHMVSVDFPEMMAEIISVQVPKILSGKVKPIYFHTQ
ASSAY_METRIC: Ki

Solved cases (4 shown):
CCC1CN(CC)c2cc3c(C(F)(F)F)cc(=O)[nH]c3cc2O1 (racemic)    0.034 µM
CCC1CN(C)c2cc3c(C(F)(F)F)cc(=O)[nH]c3cc2O1 (racemic)    0.058 µM
O=c1cc(C(F)(F)F)c2cc3c(cc2[nH]1)OCCN3    > 1 µM
CCC1COc2cc3[nH]c(=O)cc(C(F)(F)F)c3cc2N1CC1CC1 (racemic)    0.023 µM

**Q:** Write down the reported Ki of CCC1COc2cc3[nH]c(=O)cc(C(F)(F)F)c3cc2N1CC (racemic) , test system: Androgen receptor (Homo sapiens).
**A:** 0.0056 µM
